Tgt: Protein AF-9 (Homo sapiens)
Procedure details: AF9 binding to AF4 blockers, potency – biochemical, cherry-picked samples, plate reader, dose response (AID 720495)
Test parameters: biochemical protein-protein interaction assay
Records with an inconclusive call do not appear.
For each of the molecules below, state its AC50.

The following molecules have reported results that may help.
Molecule	AC50
Oc1cc(Nc2cccnc2)cc2cccnc12	6.03 µM
CC(C)(c1ccccc1)c1ccc(OCC(O)CNC2CCN(Cc3ccccc3)CC2)cc1 (configuration not stated)	0.841 µM
CN(C)c1ccc(Nc2nc(N)c3ccccc3n2)cc1	7.47 µM
CCN(CC)CCOc1ccc(/C(=C(/Cl)c2ccccc2)c2ccccc2)cc1	0.529 µM
O=c1[nH]c2ccccc2n1C1CCN(C(c2nnnn2C2CCCCC2)C2CC2)CC1 (configuration not stated)	11.1 µM

Required: AC50, one value per molecule below.
1. CN1CCN(c2ccc(N)cc2Cl)CC1
2. CN(C)c1ccc(/C=C/c2cc[n+](C)c3ccccc23)cc1
3. O=C(Nc1ccc(N2CCCCCC2)cc1)c1ccc[nH]1
4. COc1cc(C2CC(=O)Oc3c(C(CCN4CCOCC4)c4ccc(N(C)C)cc4)c(OC)cc(OC)c32)cc(OC)c1OC (configuration not stated)
5. Oc1ccc(O)c(C=NNC(=S)NC2CC3CC2C2C=CCC32)c1 (configuration not stated)

Found:
["2.11 µM", "1.05 µM", "5.21 µM", "1.55 µM", "8.16 µM"]

Required: AC50, one value per molecule below.
1. N=C(N)c1ccc(/C=C/c2ccc(C(=N)N)cc2O)cc1
2. C#CCOCCOCCOCCNc1nc(N2CCN(C(=O)[C@H]([C@@H](C)CC)n3cc(CCCN=C(N)N)nn3)CC2)nc(N2CCN(C(=O)[C@H](CCCCN)n3cc(CCCC)nn3)CC2)n1
3. C[C@H](CO)N1C[C@H](C)[C@@H](CN(C)Cc2ccc(Cl)c(Cl)c2)Oc2ccc(N(C)C)cc2CC1=O

Found:
["3.33 µM", "8.98 µM", "10.8 µM"]

---

Tgt: UniProt P42568
Procedure details: AF9 binding to AF4 blockers, potency – biochemical, cherry-picked samples, plate reader, dose response (AID 720495)
Test parameters: biochemical protein-protein interaction assay
Results filed as inconclusive are left out.
For each of the compounds below, state its AC50.

The following compounds have reported results that may help.
Compound	AC50
CN1CCN(C(c2ccc(C(F)(F)F)cc2)c2ccc3cccnc3c2O)CC1 (centres undefined)	0.857 µM
CC[n+]1c(/C=C/c2ccc(N(C)C)cc2)ccc2ccccc21	8.28 µM
COc1ccccc1N(C(C)=O)C1=C(Cl)C(=O)c2ccccc2C1=O	7.96 µM

Next compound, please.
Lookup: Query (compound): Oc1cc(NCCN2CCOCC2)cc2cccnc12 ; field requested: AC50
Found: 7.86 µM

---

Tgt: Protein AF-9 (Homo sapiens) (UniProt P42568)
Sequence (P42568 whole entry, looked up): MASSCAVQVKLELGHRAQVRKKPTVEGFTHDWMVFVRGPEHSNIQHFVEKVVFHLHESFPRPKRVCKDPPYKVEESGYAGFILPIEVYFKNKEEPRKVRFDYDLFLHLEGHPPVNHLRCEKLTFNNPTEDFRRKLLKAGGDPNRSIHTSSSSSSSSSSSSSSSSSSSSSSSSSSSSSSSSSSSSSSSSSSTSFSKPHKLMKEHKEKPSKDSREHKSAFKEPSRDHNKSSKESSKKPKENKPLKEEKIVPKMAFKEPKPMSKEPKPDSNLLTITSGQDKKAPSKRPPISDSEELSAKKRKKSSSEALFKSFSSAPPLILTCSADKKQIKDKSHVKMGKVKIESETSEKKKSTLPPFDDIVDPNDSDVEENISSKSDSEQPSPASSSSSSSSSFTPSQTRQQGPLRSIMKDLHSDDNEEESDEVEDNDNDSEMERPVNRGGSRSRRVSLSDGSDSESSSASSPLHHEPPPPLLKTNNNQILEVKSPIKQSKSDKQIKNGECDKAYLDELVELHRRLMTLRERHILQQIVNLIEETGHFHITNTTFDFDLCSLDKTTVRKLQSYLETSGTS
Procedure details: AF9 binding to AF4 blockers, potency – biochemical, cherry-picked samples, plate reader, dose response (AID 720495)
Test parameters: biochemical protein-protein interaction assay
Results filed as inconclusive are left out.
For each of the compounds below, state its AC50.

The following compounds have reported results that may help.
Compound	Observed result
CCC1CN2CCc3cc(OC)c(OC)cc3C2CC1CC1NCCc2c1[nH]c1ccc(O)cc21 (centres undefined)	7.26 µM
Cc1[nH]c2ccccc2c1N=Nc1ccccc1F	10.2 µM
CN1CCN(C(c2ccc(C(F)(F)F)cc2)c2cc(Cl)c3cccnc3c2O)CC1 (centres undefined)	1.54 µM

Required: AC50, one value per compound below.
1. CCN(CC)c1ccc(N=C2C(=O)Nc3ccccc32)cc1
2. CN(C)CC/C=C1\c2ccc(F)cc2Sc2cc(F)c(Cl)cc21
3. O=C(CN1CCCC1)N/N=C/c1c(O)ccc2ccccc12
4. CSc1ccc2c(c1)N(CCC1CCCCN1C)c1ccccc1S2 (centres undefined)
5. COCCN=c1scc(-c2ccco2)n1/N=C/c1ccc(O)c(O)c1O
6. CC(=NNC(=S)N1CCN(C2CCCCCC2)CC1)c1ccccn1

Found:
1. 2.77 µM
2. 9.52 µM
3. 0.249 µM
4. 6.31 µM
5. 0.538 µM
6. 0.687 µM
